Tested on: YSK1
Construct: gene STK25
Run conditions: concentration: 1 μM, replicates: in singlicate; n = 1
Quantity measured: %Inh (%)
Answers are plain numbers, in %.

Below, each entry is followed by its recorded %Inh result.
INSERT INTO measurements (compound, measured_target, quantity_measured, unit_annotation, test_result) VALUES
  ('COC(=O)C(Cc1ccccc1)NC(=O)NC1CCN(c2ccnc(Nc3ccc(F)cc3)n2)C1 (centres unmarked)', 'YSK1', '%Inh', '%', 0),
  ('COc1ccc(CSc2nnc(-c3ccc4c(c3)CCO4)o2)cc1', 'YSK1', '%Inh', '%', 0),
  ('COC(=O)c1cccc(NC(=O)NC2CCN(c3ccnc(Nc4ccc(OC)cc4)n3)C2)c1 (centres unmarked)', 'YSK1', '%Inh', '%', 0),
  ('Fc1ccc(-c2nc3n(c2-c2ccncc2)CCS3)cc1', 'YSK1', '%Inh', '%', 0);

Prompt line: State the recorded %Inh for this entry: "Cn1cncc1-c1cc2c(Nc3ccc(OCc4ccccc4)cc3)ncnc2cn1"
Response line: 4

----------
Tested on: ERK4;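 note: kd values determined as follow-up on hits from a single-replicate KINOMEscan panel screen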
Construct: gene MAPK4
Quantity measured: Kd

Prompt line: Request - read-out Kd | tested on ERK4 | compound "Cc1c(Cn2c3ccccc3n3c(=O)cc(N4CCOCC4)nc23)cccc1C(F)(F)F"
Response line: > 10 µM

----------
Exercise: state measured %Inh for each of the compounds provided.
Test system: CAMK1G
Run conditions: concentration: 1 μM, replicates: in singlicate; n = 1
Numbers only, in %.

Below, each entry is followed by its recorded %Inh result.
INSERT INTO results (query_smiles, quantity_measured, test_result) VALUES
  ('O=C1NC(=O)C(c2ccc(Cl)cc2)=C1Nc1cccc(Cl)c1', '%Inh', 0),
  ('Cc1ccc(NC(=O)Nc2ccc(Cl)c(C(F)(F)F)c2)cc1-c1ccc(C(=O)Nc2ccncc2)cc1', '%Inh', 12),
  ('CS(=O)(=O)CCNCc1nc(-c2ccc3ncnc(Nc4ccc5c(cnn5Cc5ccccc5)c4)c3c2)cs1.Cl.Cl', '%Inh', 0);

Could you now look at the following compound, please?
Prompt line: State the recorded %Inh for this entry: "COc1cccc(C2=C(Nc3cc(Cl)c(O)c(Cl)c3)C(=O)NC2=O)c1"
Response line: 0

----------
Exercise: state measured %Inh for each of the compounds provided.
System: p38-gamma
Construct: gene MAPK12
Run conditions: concentration: 1 μM, replicates: in singlicate; n = 1
Answers are plain numbers, in %.

Below, each entry is followed by its recorded %Inh result.
INSERT INTO measurements (compound, quantity_measured, test_result) VALUES
  ('Cc1ccc(NC(=O)Nc2ccccc2F)cc1-c1ccc(C(=O)Nc2ccncc2)cc1 [GSK1398477]', '%Inh', 0),
  ('O=C(Nc1n[nH]c2cc(-c3ccsc3)ccc12)C1CC1 [SB-732932]', '%Inh', 28),
  ('Cc1ccc(NC(=O)Nc2ccc(Cl)cc2)cc1-c1ccc(C(=O)Nc2ccncc2)cc1 [GSK1398472]', '%Inh', 23),
  ('COc1ccc(Nc2nccc(N3CCC(NC(=O)C(C)c4ccc(Cl)cc4)C3)n2)cc1 (stereo not drawn) [GSK1379735]', '%Inh', 22),
  ('COc1ccc(Nc2nccc(NCCNC(=O)Nc3cc(C)ccc3C)n2)cc1 [GSK1379899]', '%Inh', 0),
  ('O=c1cc(N2CCOCC2)nc2n(Cc3cccc(Cl)c3Cl)c3ccccc3n12 [GSK2299009]', '%Inh', 30),
  ('CCc1ccc(-c2ccc3c(c2)-c2n[nH]cc2S(=O)(=O)N3C)cc1', '%Inh', 0),
  ('COc1ccc(Nc2nccc(N3CCC(NC(=O)C(C)c4ccc(Cl)cc4)CC3)n2)cc1 (stereo not drawn) [GSK1379812]', '%Inh', 2);

Could you now look at the following compound, please?
Prompt line: State the recorded %Inh for this entry: Cc1ccccc1-c1cc(-c2c[nH]nc2-c2ccccn2)ccn1 [GW680061]
Response line: 0

Each recorded value in this set is attributed to paper PMC5540273.
